Reference source for all entries: patent WO2019131769A1

# targetOrSystem: human PAD4 (Peptidylarginine deiminase 4) (human, UniProt Q9UM07 1-663)
# Sequence (Q9UM07 whole entry): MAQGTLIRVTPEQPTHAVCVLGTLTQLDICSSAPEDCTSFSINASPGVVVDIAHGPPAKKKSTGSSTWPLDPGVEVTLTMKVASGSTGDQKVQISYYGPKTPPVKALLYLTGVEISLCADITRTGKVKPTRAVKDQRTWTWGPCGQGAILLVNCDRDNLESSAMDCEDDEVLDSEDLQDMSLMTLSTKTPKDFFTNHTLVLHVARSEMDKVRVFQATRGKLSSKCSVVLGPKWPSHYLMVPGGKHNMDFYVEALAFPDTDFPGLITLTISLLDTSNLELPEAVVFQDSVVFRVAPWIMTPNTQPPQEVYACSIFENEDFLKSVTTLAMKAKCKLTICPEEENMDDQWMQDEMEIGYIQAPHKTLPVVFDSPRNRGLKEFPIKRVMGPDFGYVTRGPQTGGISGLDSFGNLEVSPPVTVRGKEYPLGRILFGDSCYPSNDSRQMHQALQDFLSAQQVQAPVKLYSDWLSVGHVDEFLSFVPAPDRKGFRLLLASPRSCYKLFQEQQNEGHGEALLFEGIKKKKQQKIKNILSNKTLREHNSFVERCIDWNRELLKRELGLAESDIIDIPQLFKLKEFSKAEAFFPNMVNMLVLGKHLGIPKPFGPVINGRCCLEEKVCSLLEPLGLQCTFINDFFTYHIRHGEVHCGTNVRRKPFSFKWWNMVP
# assayDetails: cell-based or functional assay
Measured inhibition rate of citrullinating activity of active PAD4 (BAEE substrate, colorimetric) accompanies every entry in the list below.
Give your result in % as a bare value.

P4 (antibody, V domains shown, Chicken variable regions recombined into mouse chimeric antibody (IgG1) expression vectors; also called anti-PAD4 antibody P4; P1 etc) VH: AVTLDESGGGLQTPGGGLSLICKASGFSMRSYAMNWVRQAPGKGLEFVAGIDNTGRYTGYGSAVKGRATISRDNGQSTVRLQLNNLRAEDTGTYYCAKNVDVAGSGCDWSSGCIDAWGHGTEVTVS VL: ASTQPSSVSANPGETVKITCSGGSSTYYGWYQQKSPGSAPVTVIYQNTKRPSGLSSRFSGSKSGSTATLTITGVQAEDEAVYFCGGYDTRTYAGIFGAGTTLTVL    82

Given item P1 (antibody, V domains shown, Chicken variable regions recombined into mouse chimeric antibody (IgG1) expression vectors; also called anti-PAD4 antibody P1; P1 etc) VH: AVTLDESGGGLQTPGGGLSLICKASGFHMRSYAMNWVRQAPGKGLEFVAGIDNSGRYRNYGAAVKGRATISRDNGQSTVRLQLNNLRAEDTGIYYCAKNFDVGGDGCDWSSGCIDAWGHGTEVIVS VL: ASTQPSSVSANPGETVKITCSGGSSTYYGWYQQKSPGSAPVTVIYQNTKRPSGLSSRFSGSKSGSTATLTITGVQAEDEAVYFCGGYDTRTYAGIFGAGTTLTVL , the value recorded as its inhibition rate of citrullinating activity of active PAD4 (BAEE substrate, colorimetric) is 63

Given item P3 (antibody, V domains shown, Chicken variable regions recombined into mouse chimeric antibody (IgG1) expression vectors; also called anti-PAD4 antibody P3; P1 etc) VH: AVTLDESGGGLQTPGGGLSLICKASGSTIRSYAMNWVRQAPGKGLEFVAGIDNSGRYTNYGAAVKGRATISRDNGQSTVRLQLNNLRAEDTGIYYCAKNVDVAGYGCDWSSGCIDTWGHGTEVIVS VL: ASTQPASVSANPGETVKITCSGGSSTYYGWYQQKSPGSAPVTVIYENTNRPSDIPSRFSGSKSGSTATLTITGVQADDEAVYFCGGYDRTNYAGIFGAGTTLTVL , the value recorded as its inhibition rate of citrullinating activity of active PAD4 (BAEE substrate, colorimetric) is 80

Given item P2 (antibody, V domains shown, Chicken variable regions recombined into mouse chimeric antibody (IgG1) expression vectors; also called anti-PAD4 antibody P2; P1 etc) VH: AVTLDESGGGLQTPGGALSLVCKASGFHMRSYAMNWVRQAPGKGLEFVAGIDNSGRYRNYGAAVKGRATISRDNGQSTVRLQLNNLRAEDTGIYYCAKNFDVGGDGCDWSSGCIDAWGHGTEVIVS VL: ASTQPASVSANPGETVKITCSGGSSTYYGWYQQKSPGSAPVTVIYQNTNRPSDIPSRFSGSKSGSTATLTITGVQAEDEAVYFCGGYDRSNYAGIFGAGTTLTVL , the value recorded as its inhibition rate of citrullinating activity of active PAD4 (BAEE substrate, colorimetric) is 62
